Activity calls are given as the source filed them.
property-label: Kd

Exam item: Lookup: Kd / Mitogen-activated protein kinase 8 (Homo sapiens, UniProt P45983) / Cc1cc(-c2cc(OC(=O)c3ccccc3)ccc2Cl)cc2nnc(Nc3ccc(OCCN4CCCC4)cc3)nc12 [TG100-801]
Marked response: > 30 µM (inactive)

Exam item: Request: Kd, test system Mitogen-activated protein kinase 8 (Homo sapiens, UniProt P45983), entry FC(F)(F)c1ccc(CNc2ccc(Cc3c[nH]c4ncc(Cl)cc34)cn2)cn1 [PEXIDARTINIB]; note: in the data inactive means no Kd found up to 30 µM
Marked response: > 30 µM (inactive)

Exam item: Write down the reported Kd of CNC(=O)c1cc(COc2nnc(Nc3ccc(Cl)cc3)c3ccoc23)ccn1 [TELATINIB] , test system: Mitogen-activated protein kinase 8 (Homo sapiens, UniProt P45983). Note: in the data inactive means no Kd found up to 30 µM.
Sequence (P45983 whole entry): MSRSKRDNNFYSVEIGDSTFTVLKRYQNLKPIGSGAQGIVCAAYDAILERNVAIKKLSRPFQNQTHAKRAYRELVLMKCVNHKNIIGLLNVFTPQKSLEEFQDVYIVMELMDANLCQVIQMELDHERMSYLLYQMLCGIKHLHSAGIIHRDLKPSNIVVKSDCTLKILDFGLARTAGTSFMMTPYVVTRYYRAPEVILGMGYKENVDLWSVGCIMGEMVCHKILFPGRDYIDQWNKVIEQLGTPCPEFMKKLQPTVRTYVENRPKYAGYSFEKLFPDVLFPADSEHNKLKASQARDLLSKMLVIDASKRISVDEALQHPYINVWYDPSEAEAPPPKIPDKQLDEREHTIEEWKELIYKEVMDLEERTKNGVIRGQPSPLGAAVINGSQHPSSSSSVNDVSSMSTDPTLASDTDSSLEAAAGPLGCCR
Marked response: > 30 µM (inactive)

Exam item: Query for Mitogen-activated protein kinase 8 (Homo sapiens, UniProt P45983): what Kd does the record show for COc1cccc2cc(-c3nc([C@H]4CC[C@H](C(=O)O)CC4)n4ncnc(N)c34)[nH]c12 [OSI-027] ?
Marked response: > 30 µM (inactive)

Exam item: Quick check: Kd on Mitogen-activated protein kinase 8 (Homo sapiens, UniProt P45983), item O=S(=O)(c1cccc2c(O)nccc12)N1CCCNCC1 [HYDROXYFASUDIL] ?
Marked response: > 30 µM (inactive)

Exam item: Find Kd (Mitogen-activated protein kinase 8 (Homo sapiens, UniProt P45983)) for the entry Cn1c(=O)c(F)c(Nc2ccc(I)cc2F)c2c(=O)n(C[C@@H](O)CO)cnc21 [TAK-733]
Marked response: > 30 µM (inactive)

Exam item: Please state recorded Kd (tested on Mitogen-activated protein kinase 8 (Homo sapiens, UniProt P45983)) of CCOc1ccn(-c2ccc(F)cc2)c(=O)c1C(=O)Nc1ccc(Oc2ccnc(N)c2Cl)c(F)c1 [BMS-777607]; note: in the data inactive means no Kd found up to 30 µM
Marked response: > 30 µM (inactive)

Exam item: Hi! What's the reported Kd for COc1cc2ncnc(Nc3ccc(O)cc3)c2cc1OC [WHI-P131] on Mitogen-activated protein kinase 8 (Homo sapiens, UniProt P45983)?
Marked response: > 30 µM (inactive)

----------
biological target: Acyl-CoA dehydrogenase family member 10 (Homo sapiens, UniProt Q6JQN1); note: in the data inactive means no Kd found up to 30 µM
Sequence (Q6JQN1 whole entry): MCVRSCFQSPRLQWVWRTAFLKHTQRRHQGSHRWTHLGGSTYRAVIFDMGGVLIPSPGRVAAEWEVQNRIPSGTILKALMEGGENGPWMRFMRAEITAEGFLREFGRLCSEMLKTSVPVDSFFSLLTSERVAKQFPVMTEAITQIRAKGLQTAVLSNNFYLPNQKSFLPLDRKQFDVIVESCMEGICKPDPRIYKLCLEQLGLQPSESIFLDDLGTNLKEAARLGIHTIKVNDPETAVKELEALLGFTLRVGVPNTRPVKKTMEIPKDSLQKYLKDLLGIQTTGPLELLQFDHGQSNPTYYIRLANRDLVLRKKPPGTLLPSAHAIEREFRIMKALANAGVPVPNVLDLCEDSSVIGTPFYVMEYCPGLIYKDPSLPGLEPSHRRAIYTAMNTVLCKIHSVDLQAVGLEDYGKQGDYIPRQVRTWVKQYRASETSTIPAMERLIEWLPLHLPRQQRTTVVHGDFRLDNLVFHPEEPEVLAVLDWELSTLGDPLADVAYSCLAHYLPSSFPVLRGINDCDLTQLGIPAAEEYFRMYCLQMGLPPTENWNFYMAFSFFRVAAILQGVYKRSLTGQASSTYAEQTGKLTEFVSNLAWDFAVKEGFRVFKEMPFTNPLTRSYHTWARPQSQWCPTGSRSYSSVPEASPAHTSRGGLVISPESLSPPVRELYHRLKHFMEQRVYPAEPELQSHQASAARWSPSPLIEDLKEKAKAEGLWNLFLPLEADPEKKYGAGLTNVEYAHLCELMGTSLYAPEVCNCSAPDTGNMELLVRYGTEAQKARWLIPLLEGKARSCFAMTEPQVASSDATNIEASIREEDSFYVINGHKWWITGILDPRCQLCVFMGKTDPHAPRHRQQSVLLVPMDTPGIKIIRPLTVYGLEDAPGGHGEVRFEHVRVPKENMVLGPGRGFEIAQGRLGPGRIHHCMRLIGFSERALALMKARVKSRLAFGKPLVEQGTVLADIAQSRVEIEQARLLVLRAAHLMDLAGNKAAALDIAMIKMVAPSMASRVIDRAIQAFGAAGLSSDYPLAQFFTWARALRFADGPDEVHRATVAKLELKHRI
The source made the active and inactive calls.
Please reply with one of these outcomes: active, inactive

Exam item: What classification did O=c1[nH]c([C@@H]2CCCN2)nc2c1oc1ccc(Cl)cc12 end up with in this test?
Marked response: inactive

Exam item: What was the test verdict on COc1cc2ncnc(Nc3ccc(F)c(Cl)c3)c2cc1NC(=O)/C=C/CN1CCCCC1 [DACOMITINIB ANHYDROUS] ?
Marked response: inactive

Exam item: Record request — test call for Cn1cc(-c2[nH]c3cc(NC(=O)[C@H](N)C4CCCCC4)cc4c3c2C=NNC4=O)cn1
Marked response: inactive

Exam item: Per the assay record, what outcome was assigned to Cn1cnc2c(F)c(Nc3ccc(Br)cc3Cl)c(C(=O)NOCCO)cc21 [SELUMETINIB] ?
Marked response: inactive

Exam item: Give the logged outcome of this assay for the following compound: CCc1nc(C(N)=O)c(Nc2ccc(N3CCC(N4CCN(C)CC4)CC3)c(OC)c2)nc1NC1CCOCC1 [GILTERITINIB]
Marked response: inactive

Exam item: Each compound tested received a call. Report the one for O=C(NOC[C@H](O)CO)c1ccc(F)c(F)c1Nc1ccc(I)cc1F [MIRDAMETINIB] .
Marked response: inactive

Exam item: # outcome recorded in this test, key = CC1(C)CNc2cc(NC(=O)c3cccnc3NCc3ccncc3)ccc21 [MOTESANIB]
Marked response: inactive

Exam item: Hi, do you know how COc1cc(F)c(F)c(Nc2ccc(I)cc2F)c1NS(=O)(=O)C1(C[C@H](O)CO)CC1 [REFAMETINIB] came out in this test?
Marked response: inactive

Exam item: What is the recorded call for this compound in the test? COc1cc2c(N3CCN(C(=O)Nc4ccc(OC(C)C)cc4)CC3)ncnc2cc1OCCCN1CCCCC1 [TANDUTINIB]
Marked response: inactive

Exam item: Give the logged outcome of this assay for the following compound: Cc1cc(Nc2nc(N[C@@H](C)c3ncc(F)cn3)ncc2Cl)n[nH]1 [AZD-1480]
Marked response: inactive

Exam item: What did the test return for COc1cc2nccc(Oc3ccc(NC(=O)C4(C(=O)Nc5ccc(F)cc5)CC4)cc3)c2cc1OC [CABOZANTINIB] ?
Marked response: inactive

Exam item: Answer briefly: the call reported for O[C@H]1CC[C@H](Nc2ncc3nc(Nc4c(F)cc(F)cc4F)n([C@H]4CCOC4)c3n2)CC1 [TANZISERTIB] in this assay.
Marked response: inactive

Exam item: What was the test verdict on Cc1cc(C(=O)Nc2cc(Oc3ccc4nc(NC(=O)C5CC5)cn4n3)ccc2C)n(C)n1 [TAK-593] ?
Marked response: inactive

Exam item: Record lookup: outcome of this test for Cc1c(Cn2c(C)nc3c(C(=O)O)cc(N4CCOCC4)cc32)cccc1C(F)(F)F [GSK-2636771] ?
Marked response: inactive

Exam item: Per the records of this test, what outcome belongs to N#CCNC(=O)c1ccc(-c2ccnc(Nc3ccc(N4CCOCC4)cc3)n2)cc1 [MOMELOTINIB] ?
Marked response: inactive

Exam item: Please let me know the test result on file for O=C(NC[C@H](O)CO)c1ccncc1Nc1ccc(I)cc1F [PIMASERTIB] .
Marked response: inactive

Exam item: Hi, do you know how CC1(COc2ccc3c(c2)ncn3-c2ccc3cccc(N4CCC(N)CC4)c3n2)COC1 [CRENOLANIB] came out in this test?
Marked response: inactive

Exam item: Could you check what this test reported for COCCN1CCN(Cc2ccc(-c3n[nH]c4c3C(=O)c3c(NC(=O)NN5CCOCC5)cccc3-4)cc2)CC1 [RGB-286638] ?
Marked response: inactive

Exam item: What is the recorded call for this compound in the test? COc1cccc(Nc2ncnn3ccc(CN4CC[C@@H](N)[C@H](O)C4)c23)c1 [BMS-690514]
Marked response: inactive

Exam item: # outcome recorded in this test, key = CCOc1ccn(-c2ccc(F)cc2)c(=O)c1C(=O)Nc1ccc(Oc2ccnc(N)c2Cl)c(F)c1 [BMS-777607]
Marked response: inactive

Exam item: What did the test return for COc1cc2ncnc3c2cc1OCCCCCN(C)Cc1ccc(Br)cc1N3 [JNJ-26483327] ?
Marked response: inactive

Exam item: Tell me the assay call for O=S(=O)(c1cccc2c(O)nccc12)N1CCCNCC1 [HYDROXYFASUDIL] please.
Marked response: active

Exam item: Fill in: this test's call for NC[C@@](O)(c1ccc(Cl)cc1)c1ccc(-c2cn[nH]c2)cc1 [AT-13148] is ___
Marked response: inactive

Exam item: Please state the recorded outcome for this compound: c1cc(OCCN2CCCCC2)cc(-c2n[nH]c3ccc(-c4nc[nH]n4)cc23)c1 [CC-401]
Marked response: inactive

Exam item: Hey, what did the test say about Cc1c(NC(=O)OC[C@@H]2COCCN2)cn2ncnc(Nc3ccc4c(cnn4Cc4cccc(F)c4)c3)c12 [AC-480] ?
Marked response: inactive

Exam item: Recorded test outcome, item C#Cc1cccc(Nc2ncnc3cc4c(cc23)OCCOCCOCCO4)c1 [ICOTINIB]
Marked response: inactive

Exam item: Which outcome was entered for the compound CNC(=O)c1ccc(Nc2ncc(C(F)(F)F)c(NCc3nccnc3N(C)S(C)(=O)=O)n2)cc1 [DEFACTINIB] in this test?
Marked response: inactive

Exam item: Field: outcome | Entry: C=CCn1c(=O)c2cnc(Nc3ccc(N4CCN(C)CC4)cc3)nc2n1-c1cccc(C(C)(C)O)n1 [ADAVOSERTIB]
Marked response: inactive

Exam item: Tell me the assay call for CN1CCN(c2nc(C3=C(c4c[nH]c5ccccc45)C(=O)NC3=O)c3ccccc3n2)CC1 [SOTRASTAURIN] please.
Marked response: inactive

Exam item: Returns: the outcome recorded for O=C(Nc1ccc(OC(F)(F)F)cc1)c1sccc1NCc1ccnc2ccccc12 [OSI-930] in this assay.
Marked response: inactive

Exam item: Entry COc1cccc2cc(-c3nc([C@H]4CC[C@H](C(=O)O)CC4)n4ncnc(N)c34)[nH]c12 [OSI-027] : call = ?
Marked response: inactive

Exam item: Outcome logged for C[C@]1(O)C[C@@H](c2nc(-c3ccc4ccc(-c5ccccc5)nc4c3)c3c(N)nccn32)C1 [LINSITINIB] in this assay:
Marked response: inactive

Exam item: Assay result, entry C=CCN(/C=C1/C(=O)O[C@H](COC)[C@@]2(C)C1=C(O)C(=O)C1=C2[C@H](OC(C)=O)C[C@]2(C)C(=O)CC[C@@H]12)CC=C [SONOLISIB] — outcome?
Marked response: inactive
